Reference source for all entries: ChEMBL document CHEMBL1201862

Test system: UACC-62
Test: NCI tumour cell line growth inhibition, 48 h
Activity calls are given as the source filed them. Rule as the data show it: active = GI50 up to about 1.1 µM and inactive = higher.
Possible outcomes: true (1) for active, false (0) for inactive

# MOLECULE, LABEL_CLASS
measured = [
    ("CN(C)c1ccc(/C=C2\\N=C(c3ccccc3)N(c3ccc4c(c3)Sc3cc(N5C(=O)/C(=C/c6ccc(N(C)C)cc6)N=C5c5ccccc5)ccc3N4)C2=O)cc1", "false (0)"),
    ("CNS(=O)(=O)c1ccccc1C(=N)c1ccccc1", "false (0)"),
    ("CCOC(=O)NC(=O)c1cn(CCN2CCN(C(=O)CCCCCCCCCCNc3ncnc4c3ncn4C3OC(CO)C(O)C3O)CC2)c(=O)[nH]c1=O (stereo unspecified)", "false (0)"),
    ("CC(C)=C1C2CC3(C)CCC2(C)CCC13.CC1=CCC2C3(C)CCC2(C(C)C)C1C3 (stereo unspecified)", "false (0)"),
    ("COC(=O)N1C2C(C[C@@]1(C)C(=O)OC)c1ccccc1N2S(=O)(=O)c1ccccc1 (stereo partly specified)", "false (0)"),
    ("Cc1cc2c(cc1C)[n+]([O-])c(C(=O)/C=C/c1ccc(Cl)cc1)c(C)[n+]2[O-]", "false (0)"),
    ("CN1CCC(CN2c3ccccc3Sc3ccccc32)CC1", "false (0)"),
    ("COC(=O)C12C3C4C1C1C2C3C41C(=O)NC(C)(C)CC(=O)O (stereo unspecified)", "false (0)"),
    ("CC(C)(C)c1cc(CCC(=O)Nc2ccc(Cl)cc2)nc(S)n1", "false (0)"),
    ("CN1C/C(=C\\c2ccccc2[N+](=O)[O-])C(=O)/C(=C/c2ccccc2[N+](=O)[O-])C1", "true (1)"),
    ("COC(=O)C1Cc2c([nH]c3ccccc23)-c2[nH]c3ccccc3c2CC(NC(C)=O)C(=O)N2CCCC2C(=O)N1 (stereo unspecified)", "false (0)"),
    ("COC(=O)[C@]12CC[C@H]3CN(C(=O)OCc4ccccc4)[C@H]([C@H]31)[C@H](c1ccco1)N2S(=O)(=O)c1ccc(C)cc1", "false (0)"),
    ("O=C(c1ccco1)N(Cc1ccco1)C(=S)Nc1ccccc1", "false (0)"),
    ("Sc1nnc(COc2ccc(Cl)cc2)[nH]1", "false (0)"),
    ("CCCCCCCC(=O)N/N=C/c1ccc(Sc2nccn2C)c([N+](=O)[O-])c1", "false (0)"),
    ("c1csc(C[N+]23CN4CN(CN(C4)C2)C3)c1", "false (0)"),
    ("Cc1nc(Nc2ccc([N+](=O)[O-])cc2)sc1C(=O)/C=C/c1ccc(N(C)C)cc1", "false (0)"),
    ("O=C1C2=C(CCCC2)Nc2cccc3ncn1c23", "false (0)"),
    ("O=C1/C(=C/c2ccccc2)CCc2ccccc21", "false (0)"),
    ("COc1ccc(C(C)NNC(=O)c2ccncc2)c(OC)c1 (stereo unspecified)", "false (0)"),
    ("C=C1CC/C=C(/C(=O)O)CC[C@H]2[C@@H]1CC2(C)C", "false (0)"),
    ("Cc1ccc2c(c1)C(=C(C#N)C#N)CCCS2(=O)=O", "false (0)"),
    ("O=c1[nH]c(-c2ccccc2)nc2cc([N+](=O)[O-])c(/C(Cl)=C/c3ccccc3)cc12", "false (0)"),
    ("COc1cccc2c1C(=O)C1(O)CCCCC21 (stereo unspecified)", "false (0)"),
    ("CCCO/S(=N\\S(=O)(=O)c1ccccc1)c1ccccc1[N+](=O)[O-] (stereo unspecified)", "false (0)"),
    ("CC(=O)OCC1OC(O[C@@H]2C[C@H]3C(C)(C)[C@H](OC(C)=O)CC[C@]3(C)[C@H]3CC[C@@]45C[C@H](O)C[C@H](C)[C@@H]4CC=C5[C@@]32C)C(O)C(O)C1O (stereo partly specified)", "false (0)"),
    ("CCc1ccc(Nc2cc(=O)[nH]c(=S)n2C)cc1", "false (0)"),
    ("Clc1ccc(C2=NOC3C4CCC(C4)C23)cc1 (stereo unspecified)", "false (0)"),
    ("COc1ccc2c(c1)/C(=C\\c1c(Cl)n(-c3ccccc3)c3ccccc13)C(=O)N2", "false (0)"),
    ("O=C(C1=CCC2(CC1)OCCO2)N(Cc1ccccc1)c1ccccc1I", "false (0)"),
    ("CC(=O)OC1CCCn2c1nc1c2C(=O)C(C)=C(N2CC2)C1=O (stereo unspecified)", "true (1)"),
]
